Test system: MOLM-13
method.summary: cell viability (% survival relative to DMSO control, bortezomib = 0%); higher = less cytotoxic
run.conditions: 1000 nM; 72 h

compound: O=C(NCCCCCCNC(=O)ONC1=CCCCC1)ONC1=CCCCC1
assayed.system: MOLM-13
cell viability, %: 98.7
//
compound: CC(C)c1nc(CN(C)C(=O)N[C@H](C(=O)N[C@@H](Cc2ccccc2)C[C@H](O)[C@H](Cc2ccccc2)NC(=O)OCc2cncs2)C(C)C)cs1
assayed.system: MOLM-13
cell viability, %: 96.2
//
compound: Cc1c(-c2ccc(-c3ccccc3F)cc2)nc2ccc(F)cc2c1C(=O)O
assayed.system: MOLM-13
cell viability, %: 95.9
//
compound: CCCCC/C=C\C/C=C\C/C=C\C/C=C\CCCCN1C(=O)C=CC1=O [N-Arachidonylmaleimide]
assayed.system: MOLM-13
cell viability, %: 110
//
compound: Cc1ccccc1C(C(=O)NC1CCCCC1)N(C(=O)Cn1ccnc1C)c1cccc(F)c1 (configuration not stated)
assayed.system: MOLM-13
cell viability, %: 80
//
compound: N/C(=N\CCCC(N)C(=O)O)N[N+](=O)[O-] (configuration not stated)
assayed.system: MOLM-13
cell viability, %: 98
//
compound: CCN(CC)CCCC(C)Nc1ccnc2cc(Cl)ccc12 (configuration not stated)
assayed.system: MOLM-13
cell viability, %: 107

====

System: myeloid leukemia patient primary cells Pat.2
method.summary: cell viability (% survival relative to DMSO control); higher = less cytotoxic
run.conditions: 100 nM; 72 h
cell viability listing for selected compounds.

test.smiles: O=C(O)C1=CC(=C(c2ccc(O)c(C(=O)O)c2)c2ccc(O)c(C(=O)O)c2)C=CC1=O
assayed.system: myeloid leukemia patient primary cells Pat.2
units.text: %
bound.operator: =
cell viability: 97.8

test.smiles: O=C(O)Cn1nnc(-c2cc(N3CCC(Oc4cc(F)ccc4Br)CC3)no2)n1
assayed.system: myeloid leukemia patient primary cells Pat.2
units.text: %
bound.operator: >
cell viability: 100

test.smiles: O=C(C1CC1)N1CC[C@@H](C=C2NNC(=O)N2c2ccc(-c3ccc4occc4c3)cc2)C1
assayed.system: myeloid leukemia patient primary cells Pat.2
units.text: %
bound.operator: >
cell viability: 100

test.smiles: C=C(C)[C@H]1Cc2c(ccc3c2O[C@@H]2COc4cc(OC)c(OC)cc4[C@@H]2C3=O)O1
assayed.system: myeloid leukemia patient primary cells Pat.2
units.text: %
bound.operator: =
cell viability: 68.7

test.smiles: Oc1ccc(Nc2nc(-c3ccc(Cl)cc3)cs2)cc1
assayed.system: myeloid leukemia patient primary cells Pat.2
units.text: %
bound.operator: =
cell viability: 95.1

test.smiles: Nc1nc(Cl)nc2c1ncn2[C@H]1C[C@H](O)[C@@H](CO)O1
assayed.system: myeloid leukemia patient primary cells Pat.2
units.text: %
bound.operator: =
cell viability: 53.5

====

System: HL-60
method.summary: cell viability (% survival relative to DMSO control, bortezomib = 0%); higher = less cytotoxic
run.conditions: 10000 nM; 72 h

molecule: O=c1cc(-c2ccccc2)oc2cc(O)c(O)c(O)c12
units.text: %
cell viability: 43
--
molecule: O[C@H]1[C@H]2[C@H](O)CCCN2C[C@H]1O
units.text: %
cell viability: 112
--
molecule: CCCCCCCCCCCC(=O)c1c(O)c(C(=O)CCCCCCCCCCC)c(O)c(C2CC(c3ccc(O)cc3)Oc3cc(O)ccc32)c1O (configuration not stated)
units.text: %
cell viability: 114
--
molecule: Cc1coc2c1C(=O)C(=O)c1c-2ccc2c1CCCC2(C)C
units.text: %
cell viability: 79.3
--
molecule: COc1ccc(CNC(=O)Nc2ncc([N+](=O)[O-])s2)cc1
units.text: %
cell viability: 104
--
molecule: O=C(O)CCCCC(CCSCc1ccccc1)SCc1ccccc1 (configuration not stated)
units.text: %
cell viability: 101
--
molecule: COc1ccc(-c2ccccc2)cc1NS(=O)(=O)c1cc(Cl)cc(Cl)c1O
units.text: %
cell viability: 95.9
